I'd be grateful if you could share measured inhibition at 20 µM for these entries.
ASSAYED SYSTEM: MMP 8 (Homo sapiens, UniProt P22894)
Construct: recombinant human MMP-1-10, 12, 13 and 14 catalytic domains; purchased Biornol, USA
Sequence (P22894 100-262 limits assumed): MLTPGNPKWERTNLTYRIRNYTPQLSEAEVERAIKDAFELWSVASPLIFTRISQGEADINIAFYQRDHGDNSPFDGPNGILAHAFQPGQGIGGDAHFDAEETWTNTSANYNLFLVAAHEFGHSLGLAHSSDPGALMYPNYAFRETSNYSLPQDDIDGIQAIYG
ASSAY EXPLANATION: MMP Inhibitor Fluorimetric Profiling kit, MMP 8
Type: biochemical
STATED CONDITIONS: test compound 20 μM
Structures can show the parent of a compound that is named as a salt.
// units = %; emit number, no label

Entry O=C(NO)c1cc2ccc3c(Br)c(CCN4CCNCC4)[se]c3c2oc1=O [Compound I-3, hydrochloride] , inhibition at 20 µM reported as 100

compound O=C(NO)c1cc2ccc3c(Br)c(CN4CCNCC4)[se]c3c2oc1=O [Compound I-2, hydrochloride] , inhibition at 20 µM observed: 100

GET /value?item= O=C(NO)c1cc2ccc3c(Br)c(CN4CCCNCC4)[se]c3c2oc1=O [Compound I-4, hydrochloride] &field=inhibition at 20 µM returns 100

Form field inhibition at 20 µM, entry CN1CCN(Cc2[se]c3c(ccc4cc(C(=O)NO)c(=O)oc43)c2Br)CC1 [Compound I-1, hydrochloride] : 56

* * *

Assignment: determine reported pIC50 for the given compounds.
ASSAYED SYSTEM: MMP 14 (Homo sapiens)
Construct: recombinant human MMP-1-10, 12, 13 and 14 catalytic domains
ASSAY EXPLANATION: MMP Inhibitor Fluorimetric Profiling kit, MMP 14
STATED CONDITIONS: ne = no effect; read-out: MMP 14 inhibition IC50
Where a name gives a salt, the structure may show the parent alone.
Reminder that pIC50 means the negative base-10 logarithm of the concentration expressed in mol/L.

Documented pIC50 of O=C(NO)c1cc2ccc3c(Br)c(CN4CCCNCC4)[se]c3c2oc1=O [Compound I-4, hydrochloride] : 5.39

Reported pIC50 ( CN1CCN(Cc2[se]c3c(ccc4cc(C(=O)NO)c(=O)oc43)c2Br)CC1 [Compound I-1, hydrochloride] ) = 4.74

pIC50 reported for this compound O=C(NO)c1cc2ccc3c(Br)c(CN4CCNCC4)[se]c3c2oc1=O [Compound I-2, hydrochloride] : 5.36

pIC50 in this record for O=C(NO)c1cc2ccc3c(Br)c(CCN4CCNCC4)[se]c3c2oc1=O [Compound I-3, hydrochloride] : 5.41

* * *

ASSAYED SYSTEM: MMP 9 (Homo sapiens)
Construct: recombinant human MMP-1-10, 12, 13 and 14 catalytic domains; purchased Biornol, USA
Sequence (P14780 107-444 limits assumed): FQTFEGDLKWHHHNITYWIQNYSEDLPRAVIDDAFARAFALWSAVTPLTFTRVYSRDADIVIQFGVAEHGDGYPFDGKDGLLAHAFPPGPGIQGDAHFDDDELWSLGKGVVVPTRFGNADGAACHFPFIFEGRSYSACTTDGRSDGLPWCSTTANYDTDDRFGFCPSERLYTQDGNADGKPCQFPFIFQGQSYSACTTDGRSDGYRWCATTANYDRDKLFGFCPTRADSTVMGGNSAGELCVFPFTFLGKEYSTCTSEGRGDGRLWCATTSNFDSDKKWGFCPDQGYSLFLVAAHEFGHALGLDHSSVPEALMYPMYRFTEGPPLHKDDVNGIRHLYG
ASSAY EXPLANATION: MMP Inhibitor Fluorimetric Profiling kit, MMP 9
Format: biochemical
STATED CONDITIONS: test compound 20 μM
Where a name gives a salt, the structure may show the parent alone.
ASSAY READOUT: inhibition at 20 µM

According to the records, this compound O=C(NO)c1cc2ccc3c(Br)c(CN4CCNCC4)[se]c3c2oc1=O [Compound I-2, hydrochloride] displays inhibition at 20 µM of 100%

inhibition at 20 µM measured on O=C(NO)c1cc2ccc3c(Br)c(CCN4CCNCC4)[se]c3c2oc1=O [Compound I-3, hydrochloride] = 99%

Measured inhibition at 20 µM of CN1CCN(Cc2[se]c3c(ccc4cc(C(=O)NO)c(=O)oc43)c2Br)CC1 [Compound I-1, hydrochloride] : 35%
